methodNotes: amyloid nucleation score (Sup35N fusion, yeast selection) (log enrichment); library NNK2; higher = more nucleation; inactive = no reads after selection;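 also: zero at mode of non-aggregating sequences after 7 days selection at 30°C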
Please enter yes (1) where amyloid nucleation score is greater than or equal to -0.2, and no (0) where it is lower.

{"substance": "GLRELS", "groupLabel": "no (0)"}
{"substance": "YDGFDITYSYDLSVVFCVDR", "groupLabel": "yes (1)"}
{"substance": "FNGLSSFSFMLIGTGFDISC", "groupLabel": "no (0)"}
{"substance": "GVCVKRFFKLVTAGECNSKG", "groupLabel": "yes (1)"}
{"substance": "ALEMSMGKCFWGLVVVIMRW", "groupLabel": "no (0)"}

In: Does the reported amyloid nucleation score for LFVYWV fall at or above the -0.2 mark?
Out: yes (1)

In: Say whether ANKKIDSGNGLLDFQQNSQK shows amyloid nucleation score of -0.2 or more.
Out: no (0)

----------
methodNotes: amyloid nucleation score (Sup35N fusion, yeast selection) (log enrichment); library NNK1; higher = more nucleation; inactive = no reads after selection
The class of a record is decided solely by its measured amyloid nucleation score; consult A = under -0.6, B = from -0.6 up to 0.4, C = 0.4 and over

{"substance": "YCNGSLLRLAYMFGSGVSPR", "groupLabel": "C"}
{"substance": "MDQFDLGSYSCASFQDTPAL", "groupLabel": "C"}
{"substance": "LAEHHWYWAEMIWSRGHEFT", "groupLabel": "B"}

In: Any idea which band VSGAKLAFN is in?
Out: B

In: Band for the recorded amyloid nucleation score of SWTKVHLLVQAL ?
Out: A

In: Note: place this substance into its band. Item: YMKLKRVDMSVYSCCLVFGH
Out: A

----------
methodNotes: amyloid nucleation score (Sup35N fusion, yeast selection) (log enrichment); library NNK1; higher = more nucleation; inactive = no reads after selection
quantityKind: amyloid nucleation score
Answers are plain numbers.

Below, 3 sequences whose answers are already recorded.
{"sequence": "MVNWEARQ", "amyloid nucleation score": 0.862}
{"sequence": "SNEVSGLVCQLTNVVYLLGL", "amyloid nucleation score": 4.89}
{"sequence": "VAIRTKPLYLDEYIFMDHMP", "amyloid nucleation score": 0.459}

Please give amyloid nucleation score for each item listed below.
1. VRYMWFAAGTREVTWSAFFM
2. RCVETSFTSGFIVGELLMRM
3. TLVLYVKRCWESGLISNECF
4. VWARVMNAYFDTSH
5. ILLRSNIFMYFNMTEMPNSC

Out:
-0.014
-0.84
-0.699
-1.22
6.8

----------
methodNotes: amyloid nucleation score (Sup35N fusion, yeast selection) (log enrichment); library NNK3; higher = more nucleation; inactive = no reads after selection
quantityKind: amyloid nucleation score

{"substance": "CVSNLLTTYNNAFRFAHMVS", "amyloid nucleation score": "inactive"}
{"substance": "HLVRIASIRLNCDPLYRSVV", "amyloid nucleation score": "inactive"}
{"substance": "ELEYAHVIRGKKRCHSSRVV", "amyloid nucleation score": "inactive"}
{"substance": "FNALSWSVDFLWYARTTCVD", "amyloid nucleation score": "inactive"}

Provide amyloid nucleation score for all items below, preserving their order.
1. QSIARWTVLSFSWRTTSRKS
2. YDNANGRTRIIMISGRVSNY
3. VSLGVNRGG
4. NSCYRRHMCWCFSKAEFLTL
5. ILSIHSGFCWWMRGALNGKL
6. LYNGGI

Out:
1. -0.416
2. inactive
3. inactive
4. inactive
5. 1.45
6. inactive

For each listed entry, give its amyloid nucleation score.
1. HHYLTHNRLVIKHHYRKYYD
2. CELLCFTGLSDYNTGSGVRR
3. LWANNGSCFMCEYSHDGGKN
4. FVAVVSRDISNYSRGRSEKR

Out:
1: inactive; 2: inactive; 3: inactive; 4: inactive

From: the supplement of paper PMC12042874
